- ASSAY SYSTEM: Mycobacterium tuberculosis CYP125 (Mycobacterium tuberculosis, UniProt P9WPP1)
- Sequence (P9WPP1 whole entry): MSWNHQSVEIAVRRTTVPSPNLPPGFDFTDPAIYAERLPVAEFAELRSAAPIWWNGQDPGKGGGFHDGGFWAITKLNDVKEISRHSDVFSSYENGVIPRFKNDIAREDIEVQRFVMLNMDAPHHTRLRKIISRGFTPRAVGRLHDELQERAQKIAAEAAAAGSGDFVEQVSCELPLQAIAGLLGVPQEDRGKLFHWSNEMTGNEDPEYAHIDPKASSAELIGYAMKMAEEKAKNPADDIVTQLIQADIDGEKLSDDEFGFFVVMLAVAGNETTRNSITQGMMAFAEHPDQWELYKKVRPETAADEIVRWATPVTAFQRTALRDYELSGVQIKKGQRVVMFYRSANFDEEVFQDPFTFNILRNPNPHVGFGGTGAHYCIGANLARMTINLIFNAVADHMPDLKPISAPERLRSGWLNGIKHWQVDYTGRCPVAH
- EXPERIMENT DESCRIPTION: biochemical
- Parameters: SPR (Biacore, CM5 chip, immobilised CYP), two-state reaction model, global fit KD
- Text: Cytochrome P450 and steroid dehydrogenases are pharmaceutically significant drug targets. However, for most of these targets, there is no effective, selective and safe regulator. In this regard, many laboratories and pharmaceutical companies around the world are working on producing selective modulators of cytochrome P450 and human steroid dehydrogenase. […]
ASSAY READOUT: Kd (µM)
Record the value in µM, omitting the unit from your answer.

Problem: Field request: Kd | item: CCCc1cc(=O)c2c(O)c3c(O)c(-c4c(O)cc(O)c5c(O)c6c(=O)cc(CCC)oc6cc45)c(O)cc3cc2o1 [compound 1]
Solution: 55.3

----------
- ASSAY SYSTEM: Candida glabrata CYP51 (Nakaseomyces glabratus)
- Construct: gene ERG11; recombinant, immobilised on CM5 SPR chip
- EXPERIMENT DESCRIPTION: surface plasmon resonance
- Format: binding
ASSAY READOUT: Kd

Problem: Field request: Kd | item: CCCc1cc(=O)c2c(O)c3c(O)c(-c4c(O)cc(O)c5c(O)c6c(=O)cc(CCC)oc6cc45)c(O)cc3cc2o1
Solution: > 10 µM

----------
- ASSAY SYSTEM: Mycobacterium tuberculosis CYP51 (Mycobacterium tuberculosis, UniProt P9WPP9)
- Sequence (P9WPP9 whole entry): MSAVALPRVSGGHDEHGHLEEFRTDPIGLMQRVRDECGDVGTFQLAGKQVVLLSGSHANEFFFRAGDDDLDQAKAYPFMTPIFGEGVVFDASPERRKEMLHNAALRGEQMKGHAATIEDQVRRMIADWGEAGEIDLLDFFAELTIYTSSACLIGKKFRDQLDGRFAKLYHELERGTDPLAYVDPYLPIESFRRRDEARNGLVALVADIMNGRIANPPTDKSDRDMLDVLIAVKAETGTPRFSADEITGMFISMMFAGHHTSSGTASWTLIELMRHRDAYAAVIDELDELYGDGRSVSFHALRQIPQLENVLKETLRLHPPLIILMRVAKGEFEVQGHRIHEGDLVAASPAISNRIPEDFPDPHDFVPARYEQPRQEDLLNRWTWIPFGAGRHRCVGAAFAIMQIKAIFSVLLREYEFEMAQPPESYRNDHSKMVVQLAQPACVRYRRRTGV
- EXPERIMENT DESCRIPTION: biochemical
- Design: SPR (Biacore, CM5 chip, immobilised CYP), two-state reaction model, global fit KD
ASSAY READOUT: pKd
Note on pKd: it is the negative log10 of concentration, concentration in mol/L.

Problem: Field request: pKd | item: CCCc1cc(=O)c2c(O)c3c(O)c(-c4c(O)cc(O)c5c(O)c6c(=O)cc(CCC)oc6cc45)c(O)cc3cc2o1
Solution: 4.17

----------
- ASSAY SYSTEM: Mycobacterium tuberculosis CYP126 (Mycobacterium tuberculosis)
- Sequence (P9WPN9 whole entry): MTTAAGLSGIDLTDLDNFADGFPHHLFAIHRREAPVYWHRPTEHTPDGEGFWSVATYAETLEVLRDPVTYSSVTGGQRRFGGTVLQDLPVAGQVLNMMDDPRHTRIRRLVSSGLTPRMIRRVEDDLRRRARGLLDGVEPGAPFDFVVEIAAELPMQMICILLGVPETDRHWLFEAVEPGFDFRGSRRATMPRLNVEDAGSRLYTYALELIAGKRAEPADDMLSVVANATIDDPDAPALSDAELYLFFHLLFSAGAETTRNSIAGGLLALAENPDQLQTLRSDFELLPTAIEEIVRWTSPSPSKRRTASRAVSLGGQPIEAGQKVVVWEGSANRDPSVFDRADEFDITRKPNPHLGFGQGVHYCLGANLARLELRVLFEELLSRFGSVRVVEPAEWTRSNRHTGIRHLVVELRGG
- EXPERIMENT DESCRIPTION: biochemical
- Set-up: SPR (Biacore, CM5 chip, immobilised CYP), two-state reaction model, global fit KD
ASSAY READOUT: Kd

Problem: Field request: Kd | item: CCCc1cc(=O)c2c(O)c3c(O)c(-c4c(O)cc(O)c5c(O)c6c(=O)cc(CCC)oc6cc45)c(O)cc3cc2o1
Solution: 60.5 µM

----------
- ASSAY SYSTEM: Mycobacterium tuberculosis CYP126 (Mycobacterium tuberculosis)
- EXPERIMENT DESCRIPTION: surface plasmon resonance
- Format: binding
pKd: −log10 of the molar value.
ASSAY READOUT: pKd

Problem: Field request: pKd | item: CCCc1cc(=O)c2c(O)c3c(O)c(-c4c(O)cc(O)c5c(O)c6c(=O)cc(CCC)oc6cc45)c(O)cc3cc2o1 [compound 1]
Solution: < 5.00

----------
- ASSAY SYSTEM: Candida glabrata CYP51 (Nakaseomyces glabratus, UniProt P50859)
- Construct: gene ERG11; recombinant, immobilised on CM5 SPR chip
- Sequence (P50859 whole entry): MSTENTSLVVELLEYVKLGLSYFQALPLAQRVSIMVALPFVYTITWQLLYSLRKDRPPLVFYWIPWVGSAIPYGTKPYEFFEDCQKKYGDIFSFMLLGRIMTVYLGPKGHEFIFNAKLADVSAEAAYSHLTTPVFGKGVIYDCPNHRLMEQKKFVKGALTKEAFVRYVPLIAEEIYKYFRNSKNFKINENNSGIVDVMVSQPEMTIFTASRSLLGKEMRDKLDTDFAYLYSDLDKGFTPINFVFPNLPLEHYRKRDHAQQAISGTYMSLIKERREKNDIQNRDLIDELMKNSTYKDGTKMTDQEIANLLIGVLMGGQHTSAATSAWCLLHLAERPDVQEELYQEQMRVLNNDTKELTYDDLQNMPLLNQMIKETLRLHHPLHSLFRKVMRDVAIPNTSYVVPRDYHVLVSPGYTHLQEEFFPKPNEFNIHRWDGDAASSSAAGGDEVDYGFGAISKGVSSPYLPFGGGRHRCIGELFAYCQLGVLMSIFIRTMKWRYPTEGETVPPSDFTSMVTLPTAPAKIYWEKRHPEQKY
- EXPERIMENT DESCRIPTION: biochemical
- Design: SPR (Biacore, CM5 chip, immobilised CYP), two-state reaction model, global fit KD
- PARTICULARS: SPR, two-state model; read-out: KD (мкM)
ASSAY READOUT: pKd
Note on pKd: it is the negative log10 of concentration, concentration in mol/L.

Problem: Field request: pKd | item: CCCc1cc(=O)c2c(O)c3c(O)c(-c4c(O)cc(O)c5c(O)c6c(=O)cc(CCC)oc6cc45)c(O)cc3cc2o1 [compound 1]
Solution: 4.03

----------
- ASSAY SYSTEM: Mycobacterium tuberculosis CYP124 (Mycobacterium tuberculosis, UniProt P9WPP3)
- Sequence (P9WPP3 whole entry): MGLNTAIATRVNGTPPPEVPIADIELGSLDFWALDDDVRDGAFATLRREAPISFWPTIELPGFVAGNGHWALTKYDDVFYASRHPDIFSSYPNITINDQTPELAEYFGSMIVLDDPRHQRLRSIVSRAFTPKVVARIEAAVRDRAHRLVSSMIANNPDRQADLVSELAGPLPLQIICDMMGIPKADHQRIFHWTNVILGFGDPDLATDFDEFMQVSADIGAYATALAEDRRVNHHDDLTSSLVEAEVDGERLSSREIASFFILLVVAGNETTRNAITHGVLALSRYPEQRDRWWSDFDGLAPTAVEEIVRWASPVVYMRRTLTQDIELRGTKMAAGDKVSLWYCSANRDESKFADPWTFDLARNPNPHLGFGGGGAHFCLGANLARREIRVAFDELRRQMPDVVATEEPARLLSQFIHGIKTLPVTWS
pKd: −log10 of the molar value.
ASSAY READOUT: pKd

Problem: Field request: pKd | item: CCCc1cc(=O)c2c(O)c3c(O)c(-c4c(O)cc(O)c5c(O)c6c(=O)cc(CCC)oc6cc45)c(O)cc3cc2o1 [compound 1]
Solution: < 5.00

----------
- ASSAY SYSTEM: Homo sapiens CYP51 (Homo sapiens)
- Construct: recombinant, immobilised on CM5 SPR chip
- Sequence (Q16850 whole entry): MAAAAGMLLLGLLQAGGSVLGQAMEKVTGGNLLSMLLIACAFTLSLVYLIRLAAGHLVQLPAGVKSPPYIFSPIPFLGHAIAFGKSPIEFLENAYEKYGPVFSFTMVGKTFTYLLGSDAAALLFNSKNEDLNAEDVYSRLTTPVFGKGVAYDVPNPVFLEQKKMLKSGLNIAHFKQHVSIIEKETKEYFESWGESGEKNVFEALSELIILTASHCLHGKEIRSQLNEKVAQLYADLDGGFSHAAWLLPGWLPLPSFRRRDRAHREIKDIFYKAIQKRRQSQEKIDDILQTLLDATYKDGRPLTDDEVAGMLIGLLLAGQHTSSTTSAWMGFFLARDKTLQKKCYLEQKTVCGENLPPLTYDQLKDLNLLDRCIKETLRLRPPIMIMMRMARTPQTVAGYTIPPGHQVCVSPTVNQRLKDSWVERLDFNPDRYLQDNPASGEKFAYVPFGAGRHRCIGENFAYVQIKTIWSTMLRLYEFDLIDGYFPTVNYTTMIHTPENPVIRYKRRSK
- EXPERIMENT DESCRIPTION: surface plasmon resonance
ASSAY READOUT: Kd

Problem: Field: Kd (Homo sapiens CYP51 (Homo sapiens)). Entry: CCCc1cc(=O)c2c(O)c3c(O)c(-c4c(O)cc(O)c5c(O)c6c(=O)cc(CCC)oc6cc45)c(O)cc3cc2o1 [compound 1]
Solution: > 10 µM

Values were extracted from paper PMC10887160.
